Species on record: Ovis aries
Test: Inhibition of sheep tubulin polymerization at 100 uM by fluorescence assay
Active and inactive are the calls of the source. No cut-off for these calls is given here.
MEASURED_PROPERTY: inhibition

>>> df
                                smiles_data  measured_property   reading
0  COc1nc(OC)nc(-c2cc(C(=O)c3ccc(-c4ccccc4)cc3)n3ccccc23)n1         inhibition  inactive
1  COc1nc(OC)nc(-c2cc(C(=O)c3cc(OC)c(OC)c(OC)c3)n3c(-c4ccccc4)cccc23)n1         inhibition  inactive
2  COc1nc(OC)nc(-c2cc(C(=O)c3ccc(Cl)cc3)n3ccccc23)n1         inhibition  inactive

---

Tested on: CAKI-1
Assay: Cytotoxicity against human CAKI-1 cells assessed as growth inhibition at 10 uM after 24 hrs by SRB assay
Assay type: functional
Settings: CAKI-1, 24 h, read-out: GI
The reader will find reported inhibition of growth at 10 µM values listed item by item below.
MEASURED_PROPERTY: inhibition of growth at 10 µM (%)

>>> print(df.to_string())
                                smiles_data  tested_system  reading
0  COc1nc(OC)nc(-c2cc(C(=O)c3cc(OC)c(OC)c(OC)c3)n3c(-c4ccccc4)cccc23)n1         CAKI-1       43
1  COc1nc(OC)nc(-c2cc(C(=O)c3ccc(C)cc3)n3ccccc23)n1         CAKI-1       43
2  COc1nc(OC)nc(-c2cc(C(=O)c3ccc(Br)cc3)n3ccccc23)n1         CAKI-1       56
3  COc1nc(OC)nc(-c2cc(C(=O)c3ccc(Br)cc3)n3c2ccc2ccccc23)n1         CAKI-1       33
4  COc1nc(OC)nc(-c2cc(C(=O)c3ccc(Br)cc3)n3ccc4ccccc4c23)n1         CAKI-1       44

---

Tested on: NCI-H522
Experiment: Cytotoxicity against human NCI-H522 cells assessed as growth inhibition at 10 uM after 24 hrs by SRB assay
Format: functional
Settings: NCI-H522, 24 h, read-out: GI
MEASURED_PROPERTY: inhibition of growth at 10 µM (%)

In [3]: df
Out[3]:
                                smiles_data  unit_descriptor  reading
0  COc1nc(OC)nc(-c2cc(C(=O)c3cc(OC)c(OC)c(OC)c3)n3ccc(C)cc23)n1                %       43
1  COc1nc(OC)nc(-c2cc(C(=O)c3ccc(Br)cc3)n3ccccc23)n1                %       40
2  COc1nc(OC)nc(-c2cc(C(=O)c3ccc(C)cc3)n3ccc(C#N)cc23)n1                %       21
3  COc1nc(OC)nc(-c2cc(C(=O)c3ccc(Cl)cc3)n3ccccc23)n1                %       47
4  COc1nc(OC)nc(-c2cc(C(=O)c3cc(OC)c(OC)c(OC)c3)n3c(-c4ccccc4)cccc23)n1                %       11
5  COc1ccc(C(=O)c2cc(-c3nc(OC)nc(OC)n3)c3ccccn23)cc1                %       60
6  COc1nc(OC)nc(-c2cc(C(=O)c3cc(OC)c(OC)c(OC)c3)n3c(C)cccc23)n1                %       56

Source of measurements: ChEMBL document CHEMBL3612057
